In this section, each of the compounds is paired with its reported cell viability.
Test system: P12-Ichikawa
Assay: cell viability relative to DMSO control; higher = less cytotoxic
Details: HPLM + 10% dialyzed FBS; 48 h; 0.00234 µM
OUTCOME MEASURE: cell viability (%)

COMPOUND	OUTCOME MEASURE	READOUT NUMBER
O=C(O)c1cccnc1Nc1cccc(C(F)(F)F)c1	cell viability	111
COC1=CC=C(C(=C1)OC(C)C)C/2=N/[C@@H]([C@@H](N2C(=O)N3CCNC(=O)C3)C4=CC=C(Cl)C=C4)C5=CC=C(Cl)C=C5	cell viability	113
N[C@@H]1CONC1=O	cell viability	108
CNC(=O)c1ccc(Nc2cc(Nc3ccccc3[S+](=O)([O-])C(C)C)c3cc[nH]c3n2)nc1	cell viability	104
OCC(O)C(O)C(O)CO (stereo not given)	cell viability	102

Recorded values, source the supplement of paper PMC11451515.
